For each of the compounds below, state its CC50 at 24 h.
- test.protocol: Cytotoxicity, average of the three normal cells
- Assay type: cell-based
- assay.context: human, HGF, HPC and HPLF normal cells (average of the three)
Give bare numbers, in µM.

compound: O=C1/C(=C/c2ccc(F)cc2)CCC/C1=C\c1ccccc1[N+](=O)[O-] [Compound 1b]
CC50 at 24 h / µM: 53

Could you tell me CC50 at 24 h for each of these compounds? They are listed below.
1. O=C1/C(=C/c2ccc(Cl)cc2)CCC/C1=C\c1cccc([N+](=O)[O-])c1 [Compound 2c]
2. O=C1/C(=C/c2ccccc2)CCC/C1=C\c1ccc([N+](=O)[O-])cc1 [Compound 3a]

Reply:
1. 32
2. 259

CC50 at 24 h reading for O=C1CCCC/C1=C\c1ccccc1[N+](=O)[O-] [Compound 4a] : 146

* * *

- Tested on: mice
- test.protocol: Murine toxicity study
- Format: in vivo
- assay.context: 30, 100 and 300 mg/kg intraperitoneally; examined after 0.5 and 4 h
observable: Neurotoxicity in mice (in words)

Worked examples follow.
smiles.str: O=C1CCCC/C1=C\c1ccccc1[N+](=O)[O-]
observable: Neurotoxicity in mice (in words)
observed.measurement: Marginal neurotoxicity
//
smiles.str: COc1cc(OC)c(OC)cc1/C=C1\CCC/C(=C\c2ccc([N+](=O)[O-])cc2)C1=O
observable: Neurotoxicity in mice (in words)
observed.measurement: Marginal neurotoxicity
//
smiles.str: O=C1/C(=C/c2ccc(F)cc2)CCC/C1=C\c1ccc([N+](=O)[O-])cc1
observable: Neurotoxicity in mice (in words)
observed.measurement: Marginal neurotoxicity
//
smiles.str: COc1ccc(/C=C2\CCC/C(=C\c3cccc([N+](=O)[O-])c3)C2=O)cc1
observable: Neurotoxicity in mice (in words)
observed.measurement: Marginal neurotoxicity

Turning to the following compound.
Measured Neurotoxicity in mice (in words) of O=C1/C(=C/c2ccccc2)CCC/C1=C\c1cccc([N+](=O)[O-])c1 : Marginal neurotoxicity

* * *

- test.protocol: Cytotoxicity, average of the three normal cells
- Assay type: cell-based
- assay.context: human, HGF, HPC and HPLF normal cells (average of the three)
observable: CC50 at 24 h (µM)
Answers are plain numbers, in µM.

Examples from the recorded data:
smiles.str: O=C1/C(=C/c2ccc(F)cc2)CCC/C1=C\c1cccc([N+](=O)[O-])c1
observed.measurement: 39
//
smiles.str: COc1cc(/C=C2\CCC/C(=C\c3ccccc3[N+](=O)[O-])C2=O)cc(OC)c1OC
observed.measurement: 53

Please look at the items below and tell me CC50 at 24 h for each one, in order.
1. O=C1/C(=C/c2ccccc2)CCC/C1=C\c1cccc([N+](=O)[O-])c1
2. O=C1CCCC/C1=C\c1cccc([N+](=O)[O-])c1

Reply:
1. 19
2. 60

// field: CC50 at 24 h; key: O=C1/C(=C/c2ccccc2)CCC/C1=C\c1ccccc1[N+](=O)[O-] ; value = 45

* * *

- System: mice
- test.protocol: Murine toxicity study
- Format: in vivo
- assay.context: 100 mg/kg intraperitoneally, 0.5 h
Exercise: state measured Number of animals demonstrating neurological deficit/number of treated mice for each of the compounds provided.

Example compounds with recorded Number of animals demonstrating neurological deficit/number of treated mice:
smiles.str: CN(C)c1ccc(/C=C2\CCC/C(=C\c3cccc([N+](=O)[O-])c3)C2=O)cc1
observed.measurement: 1/8
--
smiles.str: CN(C)c1ccc(/C=C2\CCC/C(=C\c3ccc([N+](=O)[O-])cc3)C2=O)cc1
observed.measurement: 2/8
--
smiles.str: COc1cc(OC)c(OC)cc1/C=C1\CCC/C(=C\c2ccc([N+](=O)[O-])cc2)C1=O
observed.measurement: 1/8
--
smiles.str: O=C1/C(=C/c2ccc(F)cc2)CCC/C1=C\c1ccc([N+](=O)[O-])cc1
observed.measurement: 1/8

Quick batch: Number of animals demonstrating neurological deficit/number of treated mice for everything below.
1. O=C1/C(=C/c2ccccc2)CCC/C1=C\c1cccc([N+](=O)[O-])c1
2. O=C1/C(=C/c2ccc(F)cc2)CCC/C1=C\c1cccc([N+](=O)[O-])c1

Reply:
2/8
1/8

* * *

Consider the following molecules; for each one, report its CC50 at 24 h.
- test.protocol: Cytotoxicity, average of the three normal cells
- Assay type: cell-based
- assay.context: human, HGF, HPC and HPLF normal cells (average of the three)

These solved cases illustrate the format of a correct answer.
molecule: COc1ccc(/C=C2\CCC/C(=C\c3cccc([N+](=O)[O-])c3)C2=O)cc1 [Compound 2f]
observed.measurement: > 262 µM
--
molecule: COc1cc(/C=C2\CCC/C(=C\c3cccc([N+](=O)[O-])c3)C2=O)cc(OC)c1OC [Compound 2g]
observed.measurement: > 379 µM
--
molecule: O=C1/C(=C/c2ccc(F)cc2)CCC/C1=C\c1ccc([N+](=O)[O-])cc1 [Compound 3b]
observed.measurement: > 375 µM

Now look at this entry.
Lab note: measured CC50 at 24 h of Cc1ccc(/C=C2\CCC/C(=C\c3ccc([N+](=O)[O-])cc3)C2=O)cc1 [Compound 3e] was > 280 µM
